Values from ChEMBL document CHEMBL3885861

# maps each entry to its LIVER
species on record: Rattus norvegicus; assay: Open TG-GATES - Regimen: Daily Repeat; format: toxicity, organism-based, Sprague-Dawley; design: regimen Daily Repeat, gender Male, age 6 weeks; conditions: in vivo, po, 0 mg/kg, […], tissue Liver, route gavage, dose level Control, time 7 day
Give just the numeric value; g need not be written.

Below, each entry is followed by its recorded LIVER result.
• COc1ccc2[nH]c([S+]([O-])Cc3ncc(C)c(OC)c3C)nc2c1 (stereo unspecified) [OMEPRAZOLE] = 13.4
• CCOC(=O)CCC(=O)O[C@H]1[C@H](O[C@@H]2[C@@H](C)[C@H](O[C@H]3C[C@@](C)(OC)[C@@H](O)[C@H](C)O3)[C@@H](C)C(=O)O[C@H](CC)[C@@](C)(O)[C@H](O)[C@@H](C)C(=O)[C@H](C)C[C@@]2(C)O)O[C@H](C)C[C@@H]1N(C)C [ERYTHROMYCIN ETHYLSUCCINATE] = 12.3
• NC(N)=Nc1nc(CSCCC(N)=NS(N)(=O)=O)cs1 [FAMOTIDINE] = 12.2
• CCCNC(=O)NS(=O)(=O)c1ccc(Cl)cc1 [CHLORPROPAMIDE] = 11.6

Exercise: Identify the reported LIVER for the following entry. CCOc1ccc(NC(=O)CC(C)O)cc1 (stereo unspecified) [BUCETIN]
Solution: 13.2

Exercise: Give the reported value of LIVER for this record: O=C(CCCN1CCC(O)(c2ccc(Cl)cc2)CC1)c1ccc(F)cc1 [HALOPERIDOL]
Solution: 12.9
